From: patent US7582803B2

study_system: human GPR40 (Homo sapiens, UniProt O14842)
Sequence (O14842 whole entry): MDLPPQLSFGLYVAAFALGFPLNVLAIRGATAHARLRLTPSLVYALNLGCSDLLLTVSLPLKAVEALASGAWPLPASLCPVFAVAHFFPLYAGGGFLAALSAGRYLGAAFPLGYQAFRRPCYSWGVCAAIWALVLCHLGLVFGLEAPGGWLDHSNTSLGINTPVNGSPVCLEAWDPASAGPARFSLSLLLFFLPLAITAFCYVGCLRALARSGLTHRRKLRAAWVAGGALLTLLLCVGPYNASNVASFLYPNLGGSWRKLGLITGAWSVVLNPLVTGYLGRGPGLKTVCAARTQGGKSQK
assay_notes: Cell-based aequorin assay
condition_details: CHO cells stably transfected with GPR40 and aequorin; 0.01% HSA; aequorin luminescence; read-out: Relative EC50
Procedure: Cell-based aequorin assays were employed to characterize the modulatory activity of compounds on the GPR40 signaling pathway. In an exemplary assay, CHO cells were stably transfected with both GPR40 and Aequorin (Euroscreen). Cells were detached from the tissue culture dish with 2 mL of trypsin (0.25% (w/v)). […] Aequorin luminescence measurements were made using an EG&G Berthold 96-well luminometer, and the response was measured over a 20 second interval after cells and compounds were mixed. […]
Attribute: EC50

Reference set, count: 5
compound: CC#C[C@H](CC(=O)O)c1ccc(OC2CCc3cc(-c4cccc(OC)c4)ccc32)cc1 (some centres unmarked)
EC50: > 10000 nM

compound: CC#C[C@@H](CC(=O)O)c1ccc(OC2CCc3c(OC)ccc(OC)c32)cc1 (some centres unmarked)
EC50: 100 to 1000 nM

compound: O=C(O)CC(c1ccc(OC2Cc3ccccc3C2)cc1)c1ncco1 (racemic)
EC50: 1000 to 10000 nM

compound: CCC1(CC)CCC(C)(C)c2ccc(COc3ccc([C@H](CC(=O)O)c4nccn4C)cc3)cc21
EC50: 100 to 1000 nM

compound: Cn1cncc1[C@@H](CC(=O)O)c1ccc(OCc2ccc3c(c2)C(C)(C)CCC3(C)C)cc1
EC50: 100 to 1000 nM

**Query** What value of EC50 has been reported for the following compound? CC#C[C@@H](CC(=O)O)c1ccc(OC2CCc3cc(-c4cc(C)ccc4OCCCC)ccc32)cc1 (some centres unmarked)
**Result** 10 to 100 nM

**Query** What value of EC50 has been reported for the following compound? Cc1ccc(C(CC(=O)O)c2ccc(OC3CCc4cc(Cl)ccc43)cc2)s1 (racemic)
**Result** 1000 to 10000 nM

**Query** What value of EC50 has been reported for the following compound? CC#C[C@@H](CC(=O)O)c1ccc(OC2c3ccccc3CC2C)cc1 (mixture of isomers)
**Result** 10 to 100 nM
